Target: EGFR L858R (Homo sapiens, UniProt P00533, L858R)
Sequence (P00533 25-1210 L858R): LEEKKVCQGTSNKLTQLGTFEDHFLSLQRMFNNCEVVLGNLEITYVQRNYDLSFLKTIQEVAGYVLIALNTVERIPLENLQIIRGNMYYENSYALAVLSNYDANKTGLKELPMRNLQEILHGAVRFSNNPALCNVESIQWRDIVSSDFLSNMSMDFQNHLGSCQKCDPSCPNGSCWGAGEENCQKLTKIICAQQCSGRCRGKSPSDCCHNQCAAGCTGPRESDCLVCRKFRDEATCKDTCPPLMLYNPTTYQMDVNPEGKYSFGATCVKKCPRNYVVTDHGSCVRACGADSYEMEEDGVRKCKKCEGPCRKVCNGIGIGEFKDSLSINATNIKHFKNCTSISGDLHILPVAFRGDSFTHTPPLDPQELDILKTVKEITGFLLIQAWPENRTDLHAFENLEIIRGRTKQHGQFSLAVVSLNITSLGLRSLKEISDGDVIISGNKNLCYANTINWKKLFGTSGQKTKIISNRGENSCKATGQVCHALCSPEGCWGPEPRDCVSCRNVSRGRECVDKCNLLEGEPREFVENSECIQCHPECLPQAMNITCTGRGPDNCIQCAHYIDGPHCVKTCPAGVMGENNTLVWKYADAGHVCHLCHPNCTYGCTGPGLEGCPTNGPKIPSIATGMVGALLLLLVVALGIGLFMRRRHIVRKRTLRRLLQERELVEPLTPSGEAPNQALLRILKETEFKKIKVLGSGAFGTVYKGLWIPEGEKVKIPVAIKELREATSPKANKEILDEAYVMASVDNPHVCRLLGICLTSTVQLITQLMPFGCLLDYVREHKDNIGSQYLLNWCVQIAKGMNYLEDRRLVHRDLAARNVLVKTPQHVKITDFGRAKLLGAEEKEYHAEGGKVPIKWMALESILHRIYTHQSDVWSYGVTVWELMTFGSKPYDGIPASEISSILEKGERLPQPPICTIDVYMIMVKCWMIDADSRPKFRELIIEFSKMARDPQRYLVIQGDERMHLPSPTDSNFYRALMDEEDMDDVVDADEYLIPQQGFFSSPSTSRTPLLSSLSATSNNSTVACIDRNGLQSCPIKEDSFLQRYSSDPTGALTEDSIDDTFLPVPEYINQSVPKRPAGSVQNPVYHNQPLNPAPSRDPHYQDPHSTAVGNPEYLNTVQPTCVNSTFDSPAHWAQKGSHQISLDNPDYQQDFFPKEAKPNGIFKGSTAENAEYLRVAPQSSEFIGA
Assay: HTRF-based EGFR biochemical assay, L858R
Conditions: 100 μM ATP, enzyme 0.1 nM
metric: IC50 (µM)

compound="CSc1nc(-c2cccc3c2CCC3NC(=O)c2cc(F)cc(F)c2)c(-c2ccnc(NC(C)=O)c2)[nH]1 (stereo not shown) [Compound 057]" metric=IC50 censoringqualifier=> readoutvalue=100
compound="CSc1nc(-c2ccccc2NC(=O)c2cc(C)cs2)c(-c2ccnc(NC(C)=O)c2)[nH]1 [Compound 026]" metric=IC50 censoringqualifier=> readoutvalue=100
compound="CSc1nc(-c2ccccc2NC(=O)CCc2ccccc2)c(-c2ccnc(NC(C)=O)c2)[nH]1 [Compound 033]" metric=IC50 censoringqualifier=> readoutvalue=100
compound="CSc1nc(-c2cccc(NC(=O)c3ccccc3CN3Cc4ccccc4C3=O)c2)c(-c2ccnc(NC(C)=O)c2)[nH]1 [Compound 047]" metric=IC50 censoringqualifier== readoutvalue=0.096
compound="CSc1nc(-c2cccc3c2CCC3NC(=O)c2c(F)cccc2F)c(-c2ccnc(NC(C)=O)c2)[nH]1 (stereo not shown) [Compound 055]" metric=IC50 censoringqualifier=> readoutvalue=100
compound="CSc1nc(-c2cccc(NC(=O)Nc3ccc(F)c(Cl)c3)c2)c(-c2ccnc(NC(C)=O)c2)[nH]1 [Compound 018]" metric=IC50 censoringqualifier== readoutvalue=1.6
compound="CSc1nc(-c2cccc(NC(=O)C3CCCC3)c2)c(-c2ccnc(NC(C)=O)c2)[nH]1 [Compound 001]" metric=IC50 censoringqualifier== readoutvalue=4.2
compound="CSc1nc(-c2cccc(NC(=O)c3c(F)cccc3F)c2)c(-c2ccnc(Nc3ccccc3)c2)[nH]1 [Compound 010]" metric=IC50 censoringqualifier== readoutvalue=0.032
compound="CSc1nc(-c2ccc(F)c(NC(=O)Cc3c(F)cccc3F)c2)c(-c2ccnc(NC(C)=O)c2)[nH]1 [Compound 052]" metric=IC50 censoringqualifier== readoutvalue=0.969
compound="CSc1nc(-c2cccc(NC(=O)CCc3ccccc3)c2)c(-c2ccnc(NC(C)=O)c2)[nH]1 [Compound 037]" metric=IC50 censoringqualifier== readoutvalue=1.88
compound="CSc1nc(-c2cccc3c2CCC3NC(=O)c2cccc3[nH]ccc23)c(-c2ccnc(NC(C)=O)c2)[nH]1 (stereo not shown) [Compound 056]" metric=IC50 censoringqualifier=> readoutvalue=100
compound="CSc1nc(-c2cccc(NC(=O)c3c(F)ccc(O)c3CN3Cc4ccccc4C3=O)c2)c[nH]1 [Compound 058]" metric=IC50 censoringqualifier=> readoutvalue=100
compound="CSc1nc(-c2ccccc2NC(=O)c2ccco2)c(-c2ccnc(NC(C)=O)c2)[nH]1 [Compound 027]" metric=IC50 censoringqualifier=> readoutvalue=100
compound="CSc1nc(-c2ccnc(NC(C)=O)c2)c(-c2cccc(NC(=O)c3c(F)ccc(O)c3CN3Cc4ccccc4C3=O)c2)n1C [Compound 059]" metric=IC50 censoringqualifier== readoutvalue=3.07
compound="CSc1nc(-c2cccc(NC(=O)Nc3ccccc3)c2)c(-c2ccnc(NC(C)=O)c2)[nH]1 [Compound 020]" metric=IC50 censoringqualifier=> readoutvalue=100
compound="CSc1nc(-c2cccc(NC(=O)C3CC3)c2)c(-c2ccnc(NC(C)=O)c2)[nH]1 [Compound 003]" metric=IC50 censoringqualifier== readoutvalue=4.23
compound="CSc1nc(-c2cc(NC(=O)c3c(F)cccc3F)cs2)c(-c2ccnc(NC(C)=O)c2)[nH]1 [Compound 011]" metric=IC50 censoringqualifier=> readoutvalue=100
compound="CSc1nc(-c2cccc(NC(=O)Nc3ccc(F)cc3)c2)c(-c2ccnc(NC(C)=O)c2)[nH]1 [Compound 017]" metric=IC50 censoringqualifier== readoutvalue=4.13
compound="CSc1nc(-c2ccccc2NC(=O)c2ccccc2O)c(-c2ccnc(NC(C)=O)c2)[nH]1 [Compound 032]" metric=IC50 censoringqualifier=> readoutvalue=100
compound="CSc1nc(-c2cc(NC(=O)Cc3ccccc3)cs2)c(-c2ccnc(NC(C)=O)c2)[nH]1 [Compound 012]" metric=IC50 censoringqualifier=> readoutvalue=100
compound="CSc1nc(-c2ccccc2NC(=O)c2cccc3[nH]ccc23)c(-c2ccnc(NC(C)=O)c2)[nH]1 [Compound 023]" metric=IC50 censoringqualifier=> readoutvalue=100
compound="CSc1nc(-c2ccccc2NC(=O)Nc2ccc(Br)cc2)c(-c2ccnc(NC(C)=O)c2)[nH]1 [Compound 019]" metric=IC50 censoringqualifier=> readoutvalue=100
compound="COc1cccc(C(=O)Nc2ccccc2-c2nc(SC)[nH]c2-c2ccnc(NC(C)=O)c2)c1 [Compound 025]" metric=IC50 censoringqualifier=> readoutvalue=100
compound="CSc1nc(-c2cccc(NC(=O)Nc3cccc(C(F)(F)F)c3)c2)c(-c2ccnc(NC(C)=O)c2)[nH]1 [Compound 016]" metric=IC50 censoringqualifier== readoutvalue=0.512
compound="CSc1nc(-c2cccc(NC(=O)Nc3ccccc3)c2)c(-c2ccnc(NC(C)=O)c2)[nH]1 [Compound 005]" metric=IC50 censoringqualifier== readoutvalue=3.6
